ASSAY METHOD TEXT: logP determination (acidic / neutral)
Format: physicochemical
CONDITION DETAILS: acidic
Measured logP acidic by item
Output: the number by itself.

Cc1cc(Oc2ccc(Cl)c(Br)c2)c(C)cc1N=CN1CCCC1	2.56
Cc1cc(Oc2ccc(Br)c(F)c2)c(C)cc1N=CN1CCCCC1	2.39
CCN(C)C=Nc1cc(C)c(Oc2cc(F)cc(Cl)c2)cc1C	2.21
CCCN(C)C=Nc1cc(C)c(Oc2cc(F)cc(Br)c2)cc1C [Compound 28]	2.91
CCCN(C)C=Nc1cc(C)c(Oc2cc(F)cc(F)c2)cc1C	2.04

# input logP acidic for CCN(C)C=Nc1cc(C)c(Oc2ccc(F)c(F)c2)cc1C ?
# output 2.37

# input logP acidic for CCN(C)C=Nc1cc(C)c(Oc2cc(Br)cc(Br)c2)cc1C ?
# output 2.5

# input logP acidic for Cc1cc(Oc2cc(F)cc(F)c2)c(C)cc1N=CN1CCCCC1 ?
# output 2.03

# input logP acidic for CCCN(C)C=Nc1cc(C)c(Oc2cc(F)cc(Br)c2)cc1C [Compound 14] ?
# output 2.37

* * *

ASSAY METHOD TEXT: logP determination (acidic / neutral)
Format: physicochemical
CONDITION DETAILS: acidic
MEASURED METRIC: logP acidic
Output: the number by itself.

Cc1cc(Oc2ccc(Cl)c(I)c2)c(C)cc1N=CN1CCCCC1 [Compound 26]	2.52
Cc1cc(Oc2cc(Cl)cc(Br)c2)c(C)cc1N=CN(C)C(C)C [Compound 7]	2.7

# input logP acidic for CCN(C)C=Nc1cc(C)c(Oc2ccc(Cl)c(I)c2)cc1C [Compound 25] ?
# output 2.29

* * *

ASSAY METHOD TEXT: logP determination (acidic / neutral)
Assay type: physicochemical
CONDITION DETAILS: acidic
Measured logP acidic by item
Output: the number by itself.

Sample records with logP acidic:
CCN(C)C=Nc1cc(C)c(Oc2ccc(F)c(Br)c2)cc1C	2.29
Cc1cc(Oc2cc(F)cc(Br)c2)c(C)cc1N=CN1CC(C)OC(C)C1 (centres unmarked)	2.59
CCN(C)C=Nc1cc(C)c(Oc2ccc(Br)c(I)c2)cc1C	2.67
CCCN(C)C=Nc1cc(C)c(Oc2cc(F)cc(Cl)c2)cc1C	2.39

Proceed to the following item.
# input logP acidic for CCN(C)C=Nc1cc(C)c(Oc2cc(Cl)cc(Br)c2)cc1C ?
# output 2.56

* * *

ASSAY METHOD TEXT: logP determination (acidic / neutral)
Assay type: physicochemical
CONDITION DETAILS: acidic
MEASURED METRIC: logP acidic
Output: the number by itself.

Cc1cc(Oc2cc(F)cc(Br)c2)c(C)cc1N=CN(C)CC1CC1	2.25
CCCN(C)C=Nc1cc(C)c(Oc2ccc(Cl)c(Br)c2)cc1C	2.64
CCCN(C)C=Nc1cc(C)c(Oc2ccc(Br)c(Br)c2)cc1C	2.45

# input logP acidic for CCN(C)C=Nc1cc(C)c(Oc2cc(F)cc(I)c2)cc1C ?
# output 2.4

# input logP acidic for Cc1cc(Oc2cc(F)cc(Cl)c2)c(C)cc1N=CN1CCCC1 ?
# output 2.26

# input logP acidic for Cc1cc(Oc2cc(Br)cc(Br)c2)c(C)cc1N=CN(C)C(C)C ?
# output 2.62

# input logP acidic for CCN(C)C=Nc1cc(C)c(Oc2ccc(Cl)c(Br)c2)cc1C ?
# output 2.23

# input logP acidic for Cc1cc(Oc2cc(F)cc(I)c2)c(C)cc1N=CN1CCCC1 ?
# output 2.46

# input logP acidic for C=CCN(C)C=Nc1cc(C)c(Oc2ccc(Br)c(Br)c2)cc1C ?
# output 2.24

# input logP acidic for Cc1cc(Oc2ccc(Cl)c(I)c2)c(C)cc1N=CN(C)C(C)C ?
# output 2.4

# input logP acidic for CCN(C)C=Nc1cc(C)c(Oc2ccc(Br)c(F)c2)cc1C ?
# output 2.2

# input logP acidic for Cc1cc(Oc2cc(F)cc(Br)c2)c(C)cc1N=CN1CCCCC1 ?
# output 2.55

# input logP acidic for Cc1cc(Oc2ccc(Cl)c(Br)c2)c(C)cc1N=CN1CCCCC1 ?
# output 2.66

# input logP acidic for Cc1cc(Oc2ccc(Br)c(Br)c2)c(C)cc1N=CN1CCCCC1 ?
# output 2.48

* * *

ASSAY METHOD TEXT: logP determination (acidic / neutral)
Assay type: physicochemical
CONDITION DETAILS: neutral
Measured logP neutral by item
Output: the number by itself.

Cc1cc(Oc2cc(Cl)cc(Br)c2)c(C)cc1N=CN(C)C(C)C	6.8
CCCN(C)C=Nc1cc(C)c(Oc2cc(F)cc(F)c2)cc1C	5.54
CCCN(C)C=Nc1cc(C)c(Oc2cc(F)cc(Cl)c2)cc1C	6.1
CCN(C)C=Nc1cc(C)c(Oc2cc(F)cc(Cl)c2)cc1C	5.6
CCN(C)C=Nc1cc(C)c(Oc2ccc(Cl)c(Br)c2)cc1C	6.1

# input logP neutral for Cc1cc(Oc2cc(F)cc(I)c2)c(C)cc1N=CN1CCCCC1 ?
# output 6.8

# input logP neutral for Cc1cc(Oc2cc(F)cc(I)c2)c(C)cc1N=CN1CCCC1 ?
# output 6.6

# input logP neutral for CCN(C)C=Nc1cc(C)c(Oc2ccc(Br)c(I)c2)cc1C ?
# output 6.1

# input logP neutral for CCCN(C)C=Nc1cc(C)c(Oc2cc(F)cc(Br)c2)cc1C [Compound 14] ?
# output 7.4

* * *

ASSAY METHOD TEXT: logP determination (acidic / neutral)
Type: physicochemical
CONDITION DETAILS: neutral
MEASURED METRIC: logP neutral

Sample records with logP neutral:
C=CCN(C)C=Nc1cc(C)c(Oc2ccc(Br)c(Br)c2)cc1C	6.3
Cc1cc(Oc2cc(Br)cc(Br)c2)c(C)cc1N=CN(C)C(C)C	6.4
Cc1cc(Oc2cc(F)cc(Cl)c2)c(C)cc1N=CN1CCCC1	5.6
CCCN(C)C=Nc1cc(C)c(Oc2ccc(Br)c(Br)c2)cc1C	6.62
Cc1cc(Oc2cc(F)cc(Cl)c2)c(C)cc1N=CN1CCCCC1	6.3
Cc1cc(Oc2cc(F)cc(F)c2)c(C)cc1N=CN1CCCCC1	5.79

# input logP neutral for CCCN(C)C=Nc1cc(C)c(Oc2cc(F)cc(Br)c2)cc1C [Compound 28] ?
# output 6.9

* * *

ASSAY METHOD TEXT: logP determination (acidic / neutral)
Type: physicochemical
CONDITION DETAILS: neutral
Criterion: logP neutral strictly less than 6. Met: rule met. Not met: rule not met.

Example entries begin here.
Cc1cc(Oc2ccc(Cl)c(I)c2)c(C)cc1N=CN(C)C(C)C	rule not met
Cc1cc(Oc2ccc(Cl)c(Br)c2)c(C)cc1N=CN1CCCC1	rule not met
CCN(C)C=Nc1cc(C)c(Oc2ccc(F)c(Br)c2)cc1C	rule met

# input Would you kindly verify if logP neutral of CCN(C)C=Nc1cc(C)c(Oc2cc(F)cc(Br)c2)cc1C is strictly less than 6?
# output rule met

* * *

ASSAY METHOD TEXT: logP determination (acidic / neutral)
Assay type: physicochemical
CONDITION DETAILS: neutral
Measured logP neutral by item
Output: the number by itself.

Sample records with logP neutral:
Cc1cc(Oc2ccc(Cl)c(Br)c2)c(C)cc1N=CN1CCCCC1	6.9
Cc1cc(Oc2cc(F)cc(Br)c2)c(C)cc1N=CN1CC(C)OC(C)C1 (centres unmarked)	5.8
CCN(C)C=Nc1cc(C)c(Oc2cc(Cl)cc(Br)c2)cc1C	6.4
CCN(C)C=Nc1cc(C)c(Oc2ccc(F)c(F)c2)cc1C	6.2

Proceed to the following item.
# input logP neutral for Cc1cc(Oc2cc(F)cc(Br)c2)c(C)cc1N=CN1CCCCC1 ?
# output 6.5

* * *

ASSAY METHOD TEXT: logP determination (acidic / neutral)
Assay type: physicochemical
CONDITION DETAILS: acidic
MEASURED METRIC: logP acidic
Output: the number by itself.

Sample records with logP acidic:
Cc1cc(Oc2cc(F)cc(I)c2)c(C)cc1N=CN1CCCCC1	2.6
CCCN(C)C=Nc1cc(C)c(Oc2cc(F)cc(I)c2)cc1C	2.61
Cc1cc(Oc2cc(F)cc(Cl)c2)c(C)cc1N=CN1CCCCC1	2.42
CCN(C)C=Nc1cc(C)c(Oc2cc(F)cc(Br)c2)cc1C	2.29

Proceed to the following item.
# input logP acidic for CCN(C)C=Nc1cc(C)c(Oc2ccc3c(c2)CCCC3)cc1C ?
# output 2.37
